- testName: Solubility of prepared 2,4-diamino-5-methyl-6-[(3,4,5-trimethoxyanilino)methyl]quinazoline salts in water
- Format: physicochemical
- experimentalParameters: Table II, Method B: saturated 5.0 ml H2O overnight, filtrate diluted with 0.01 N HCl, 1440 min
quantity: log10(Solubility in water) (log10 of the value in mg base/ml)
Response schema: value (number) is log10 of Solubility in water in units of mg base/ml.

{"compound": "COc1cc(NCc2ccc3nc(N)nc(N)c3c2C)cc(OC)c1OC [Benzene sulfonate]", "log10(Solubility in water)": 0.09}
{"compound": "COc1cc(NCc2ccc3nc(N)nc(N)c3c2C)cc(OC)c1OC [Glucuronate]", "log10(Solubility in water)": 2.04}
{"compound": "COc1cc(NCc2ccc3nc(N)nc(N)c3c2C)cc(OC)c1OC [Ethane sulfonate]", "log10(Solubility in water)": 0.42}
{"compound": "COc1cc(NCc2ccc3nc(N)nc(N)c3c2C)cc(OC)c1OC [Gentisate]", "log10(Solubility in water)": -0.55}
{"compound": "COc1cc(NCc2ccc3nc(N)nc(N)c3c2C)cc(OC)c1OC [Ethoxyacetate]", "log10(Solubility in water)": 0.80}
{"compound": "COc1cc(NCc2ccc3nc(N)nc(N)c3c2C)cc(OC)c1OC [Isethionate]", "log10(Solubility in water)": 1.39}

Inquiry: Which log10(Solubility in water) is listed for COc1cc(NCc2ccc3nc(N)nc(N)c3c2C)cc(OC)c1OC [3-Hydroxypropyl sulfonate] ?
Reply text: 0.67

Inquiry: Recorded log10(Solubility in water) of COc1cc(NCc2ccc3nc(N)nc(N)c3c2C)cc(OC)c1OC [Gluconatete] , please.
Reply text: 0.41

Inquiry: Would you kindly share the measured log10(Solubility in water) for COc1cc(NCc2ccc3nc(N)nc(N)c3c2C)cc(OC)c1OC [Free base] ?
Reply text: -1.00
